B1: TPR t1 (parent)
chain: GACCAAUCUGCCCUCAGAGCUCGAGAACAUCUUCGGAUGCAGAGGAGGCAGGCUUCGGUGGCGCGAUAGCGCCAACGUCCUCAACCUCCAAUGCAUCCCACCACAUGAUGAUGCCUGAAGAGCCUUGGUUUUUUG

# Variants of: B1
# test summary: polymerase ribozyme fitness, log enrichment relative to wild type (log ratio); higher = more active; in vitro selection for triplet polymerase activity
Short version: polymerase ribozyme fitness (log ratio) at least -4 is true (1), less is false (0).

{"mutation notation": "A27U G44U G69C C89U", "answer label": "false (0)"}
{"mutation notation": "C20A C28A G47C C97U G110C", "answer label": "false (0)"}
{"mutation notation": "C20U C124U", "answer label": "true (1)"}
{"mutation notation": "G10U U109A", "answer label": "false (0)"}
{"mutation notation": "C12U C101U", "answer label": "true (1)"}
{"mutation notation": "A41U C94U A111G G128U", "answer label": "false (0)"}
{"mutation notation": "A18C C20U C88G G110C", "answer label": "false (0)"}
{"mutation notation": "G77U C114G", "answer label": "true (1)"}
{"mutation notation": "G10A G60C C124A", "answer label": "true (1)"}
{"mutation notation": "A29U C70U", "answer label": "true (1)"}
{"mutation notation": "G61A A68G", "answer label": "true (1)"}
{"mutation notation": "C31G A41U U55G G61U C86U G93C C102U G113C", "answer label": "false (0)"}
{"mutation notation": "A6U C70A", "answer label": "true (1)"}
{"mutation notation": "U9C G57U C114U G128C U130C", "answer label": "true (1)"}
{"mutation notation": "G45A G61U", "answer label": "true (1)"}
{"mutation notation": "U9C G122A", "answer label": "true (1)"}
{"mutation notation": "G42U G52U U54A A111C G122A", "answer label": "false (0)"}
{"mutation notation": "G39A A50C C73A C79A C82G", "answer label": "true (1)"}
{"mutation notation": "A16G U112A A119G", "answer label": "true (1)"}
{"mutation notation": "A118U G127C", "answer label": "true (1)"}
{"mutation notation": "A6U A27U G63A A121G U130A", "answer label": "true (1)"}

Where do these numbers come from? They come from the RNAGym collection of RNA variant scans (doi:10.1073/pnas.2313332121).
